# System: Escherichia coli
# test.description: In vitro antibacterial activity was measured on gram negative bacteria Escherichia coli UBMS 90-5 sensitive cell lines
# Format: functional
Listed here: items and their measured MIC.
Provide the reading as a plain figure in µg/mL.

Example molecules with recorded MIC:
Ask: Return reported MIC; argument: CC(C)C[C@@H](N)C(=O)Nc1ccc2c(c1O)C(=O)C1=C(O)[C@]3(O)C(O)=C(C(N)=O)C(=O)[C@@H](N(C)C)C3[C@@H](O)C1[C@H]2C (stereo not given in full)
Result: 8

Ask: Try this molecule next: C[C@H]1c2ccc(NC(=O)[C@H](Cc3ccccc3)N(C)C)c(O)c2C(=O)C2=C(O)[C@]3(O)C(O)=C(C(N)=O)C(=O)[C@@H](N(C)C)C3[C@@H](O)C21 (stereo not given in full)
Result: 32

Note: attention shifts to another entry.
Ask: Please give the measured MIC for this molecule: C[C@H](N)C(=O)Nc1ccc2c(c1O)C(=O)C1=C(O)[C@]3(O)C(O)=C(C(N)=O)C(=O)[C@@H](N(C)C)C3[C@@H](O)C1[C@H]2C (stereo not given in full)
Result: 8

* * *

# Test system: Escherichia coli
# test.description: In vitro antibacterial activity was measured on gram negative bacteria Escherichia coli UBMS 90-5 sensitive cell lines
# Assay type: functional
Parameter: MIC. Scope: all listed entries.
Reply numerically in µg/mL, unit not repeated.

Solved cases below.
Ask: Field: MIC (Escherichia coli). Entry: CCN(CC)CC(=O)Nc1ccc2c(c1O)C(=O)C1=C(O)[C@]3(O)C(O)=C(C(N)=O)C(=O)[C@@H](N(C)C)C3[C@@H](O)C1[C@H]2C (some centres not stated)
Result: 0.5

Ask: What about this molecule? C[C@H]1c2ccc(NC(=O)CN3CCCCC3)c(O)c2C(=O)C2=C(O)[C@]3(O)C(O)=C(C(N)=O)C(=O)[C@@H](N(C)C)C3[C@@H](O)C21 (some centres not stated)
Result: 0.5

Ask: Consider next the molecule CN(C)c1ccc(O)c2c1CC1C[C@H]3[C@H](N(C)C)C(=O)C(C(N)=O)=C(O)[C@@]3(O)C(=O)C1=C2O (some centres not stated) in the same way.
Result: 1

Ask: C[C@H]1c2ccc(NC(=O)CNC(C)(C)C)c(O)c2C(=O)C2=C(O)[C@]3(O)C(O)=C(C(N)=O)C(=O)[C@@H](N(C)C)C3[C@@H](O)C21 (some centres not stated) ?
Result: 0.5

Ask: And what about the molecule CCCCNCC(=O)Nc1ccc2c(c1O)C(=O)C1=C(O)[C@]3(O)C(O)=C(C(N)=O)C(=O)[C@@H](N(C)C)C3[C@@H](O)C1[C@H]2C (some centres not stated) ?
Result: 0.5

Further cases:
Ask: Notebook entry, Escherichia coli assay: MIC of CN(C)[C@@H]1C(O)=C(C(N)=O)C(=O)[C@@]2(O)C(O)=C3C(=O)c4c(O)cccc4C[C@H]3C[C@@H]12 [SANCYCLINE] = ?
Result: 2

Ask: // repeat for C[C@H]1c2ccc(NC(=O)[C@@H](N)Cc3c[nH]c4ccccc34)c(O)c2C(=O)C2=C(O)[C@]3(O)C(O)=C(C(N)=O)C(=O)[C@@H](N(C)C)C3[C@@H](O)C21 (some centres not stated) and report
Result: 8

Ask: And the next one, CC[C@H](C)[C@H](N)C(=O)Nc1ccc2c(c1O)C(=O)C1=C(O)[C@]3(O)C(O)=C(C(N)=O)C(=O)[C@@H](N(C)C)C3[C@@H](O)C1[C@H]2C (some centres not stated) ?
Result: 1

Ask: Now the same for C[C@H]1c2ccc(NC(=O)[C@@H](N)CC3CCCCC3)c(O)c2C(=O)C2=C(O)[C@]3(O)C(O)=C(C(N)=O)C(=O)[C@@H](N(C)C)C3[C@@H](O)C21 (some centres not stated)
Result: 4

Reference source for all entries: ChEMBL document CHEMBL1127343
